Values from paper PMC11510342

# procedure.text: Water solubility at 37 °C by consecutive addition of water until full dissolution
# Assay type: physicochemical
# condition.parameters: water, 37 °C
readout.name: solubility

Return the recorded solubility value; entry: `CO/N=C(\C(=O)N[C@@H]1C(=O)N2C(C(=O)O)=C(COC(N)=O)CS[C@H]12)c1ccco1`
< 700 µg/mL

----------
# Tested on: 3T3 murine fibroblasts
# procedure.text: Cytotoxicity on 3T3 cells (MTT assay)
# Assay type: cell-based
# condition.parameters: 100 µM, 24 h, MTT
readout.name: Toxicity to 3T3 murine fibroblasts compared with the original drug (CFX)

CCCCCCCCCCCCCCCC[n+]1ccn(C)c1.CO/N=C(\C(=O)N[C@@H]1C(=O)N2C(C(=O)[O-])=C(COC(N)=O)CS[C@H]12)c1ccco1 [[C16MIM][CFX]] :: more toxic
CCCCCCCCCC[n+]1ccccc1.CO/N=C(\C(=O)N[C@@H]1C(=O)N2C(C(=O)[O-])=C(COC(N)=O)CS[C@H]12)c1ccco1 [[C10Py][CFX]] :: more toxic
CCCCCCCCCCCCCCCC[n+]1ccccc1.CO/N=C(\C(=O)N[C@H]1C(=O)N2C(C(=O)[O-])=C(COC(N)=O)CS[C@@H]12)c1ccco1 [[C16Py][CFX]] :: more toxic

----------
# Test system: Bacillus subtilis (ATCC 6633)
# procedure.text: Antimicrobial activity, growth inhibition (OD 600 nm)
# Type: cell-based
# condition.parameters: Bacillus subtilis, ATCC6633; 6 h, 0.03–100 µM; interval in brackets; read-out: IC50 B. subtilis
readout.name: pIC50
A value of pIC50 is the negative decimal logarithm of a concentration given in moles per litre.

Completed entries (count: 2):
CO/N=C(\C(=O)N[C@@H]1C(=O)N2C(C(=O)O)=C(COC(N)=O)CS[C@H]12)c1ccco1 :: 6.02
CCCCCCCCCCCCCCCC[n+]1ccn(C)c1 [[C16MIM]Br, reference compound] :: 5.28

Moving on to the next compound.
Return the recorded pIC50 value; entry: CCCCCCCCCC[n+]1ccccc1 [[C10Py]Br, reference compound]
4.09

----------
# Test system: Bacillus subtilis (ATCC 6633)
# procedure.text: Antimicrobial activity, growth inhibition (OD 600 nm)
# Assay type: cell-based
# condition.parameters: 6 h, 0.03–100 µM; interval in brackets; read-out: IC50 B. subtilis
readout.name: pIC50
A value of pIC50 is the negative decimal logarithm of a concentration given in moles per litre.

CCCCCCCCCCCCCCCC[n+]1ccccc1.CO/N=C(\C(=O)N[C@H]1C(=O)N2C(C(=O)[O-])=C(COC(N)=O)CS[C@@H]12)c1ccco1 [[C16Py][CFX]] :: 5.29
CCCCCCCCCCCCCCCC[n+]1ccn(C)c1.CO/N=C(\C(=O)N[C@@H]1C(=O)N2C(C(=O)[O-])=C(COC(N)=O)CS[C@H]12)c1ccco1 [[C16MIM][CFX]] :: 5.58
CO/N=C(\C(=O)N[C@@H]1C(=O)N2C(C(=O)[O-])=C(COC(N)=O)CS[C@H]12)c1ccco1.CO/N=C(\C(=O)N[C@@H]1C(=O)N2C(C(=O)[O-])=C(COC(N)=O)CS[C@H]12)c1ccco1.c1cc[n+](CCCCCCCCCC[n+]2ccccc2)cc1 [[PyC10Py][CFX]2] :: 6.07
CCCCCC[n+]1ccccc1.CO/N=C(\C(=O)N[C@@H]1C(=O)N2C(C(=O)[O-])=C(COC(N)=O)CS[C@H]12)c1ccco1 [[C6Py][CFX]] :: 5.05

Moving on to the next compound.
Return the recorded pIC50 value; entry: CCCCCCCCCC[n+]1ccccc1.CO/N=C(\C(=O)N[C@@H]1C(=O)N2C(C(=O)[O-])=C(COC(N)=O)CS[C@H]12)c1ccco1 [[C10Py][CFX]]
4.64

----------
# Tested on: Escherichia coli (ATCC 25922)
# procedure.text: Antimicrobial activity, growth inhibition (OD 600 nm)
# Format: cell-based
# condition.parameters: 6 h, 0.03–100 µM; interval in brackets; read-out: IC50 E. coli
pIC50: −log10 of the molar value.
We use 5 as the dividing line for pIC50: on or above the line is y, below is n.

Sample answers from the record:
CCCCCC[n+]1ccccc1.CO/N=C(\C(=O)N[C@@H]1C(=O)N2C(C(=O)[O-])=C(COC(N)=O)CS[C@H]12)c1ccco1 [[C6Py][CFX]] :: n
CO/N=C(\C(=O)N[C@@H]1C(=O)N2C(C(=O)[O-])=C(COC(N)=O)CS[C@H]12)c1ccco1.CO/N=C(\C(=O)N[C@@H]1C(=O)N2C(C(=O)[O-])=C(COC(N)=O)CS[C@H]12)c1ccco1.c1cc[n+](CCCCCCCCCC[n+]2ccccc2)cc1 [[PyC10Py][CFX]2] :: y

Proceed to the following item.
Check this compound for pIC50 at or above 5: CCCCCCCCCC[n+]1ccccc1.CO/N=C(\C(=O)N[C@@H]1C(=O)N2C(C(=O)[O-])=C(COC(N)=O)CS[C@H]12)c1ccco1 [[C10Py][CFX]]
n
